Target: GST-JAK2(808-1132) (Homo sapiens)
Construct: GST-JAK2(808-1132); purchased Invitrogen (Carlsbad, USA) #4288
Sequence (O60674 808-1132): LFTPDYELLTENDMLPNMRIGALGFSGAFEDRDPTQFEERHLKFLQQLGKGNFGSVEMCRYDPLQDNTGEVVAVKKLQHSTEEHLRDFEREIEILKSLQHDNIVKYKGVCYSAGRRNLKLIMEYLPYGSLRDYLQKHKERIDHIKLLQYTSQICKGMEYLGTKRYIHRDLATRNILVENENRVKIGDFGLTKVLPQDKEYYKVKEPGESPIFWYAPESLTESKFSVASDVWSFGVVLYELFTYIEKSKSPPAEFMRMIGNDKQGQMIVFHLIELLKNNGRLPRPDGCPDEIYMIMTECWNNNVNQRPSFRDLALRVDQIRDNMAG
Test: JAK2 kinase assay (Caliper mobility shift, LabChip 3000)
Assay type: biochemical
Measured IC50 values are reported for all entries that follow.
PARAMETER: IC50

Fc1cc(-n2ccc3cnc(Nc4ccc5c(c4)C4CCC5N4)nc32)cc(F)c1CN1CCOCC1 (stereo not shown) [Example 424] | ≤ 3 nM
Fc1cc(-n2ccc3cnc(Nc4ccc(CN5CCNC6(CC6)C5)cc4)nc32)cc(F)c1CN1CCOCC1 [Example 256] | < 3 nM
COc1ccc(Nc2ncc3ccn(-c4ccc(S(C)(=O)=O)cc4)c3n2)cc1OCCN1CCCC1 [Example 31] | < 3 nM
COC1CN(Cc2cc(Nc3ncc4ccn(-c5cc(F)c(CN6CCOCC6)c(F)c5)c4n3)ccc2C)C1 [Example 405] | ≤ 3 nM

----------
Measured IC50 values are reported for all entries that follow.
System: JAK2-dependent nuclear translocation of STAT5-GFP in U-2 OS osteosarcoma cells
Test: STAT5 nuclear translocation assay (Cellomics), rhEpo stimulated U-2 OS STAT5-GFP cells
Assay type: cell-based
Details: Homo sapiens, U2OS; STAT5 translocation pathway
Description: The medium-throughput (96-well format) cellular automated fluorescence microscopy Cellomics assay can be routinely used to assess the functional activation of Janus Kinases (JAKs), based on the nuclear translocation of their substrate, Signal Transducer and Activator of Transcription (STAT). […]
PARAMETER: IC50 (nM)

C[C@@H]1CN(c2ccc(Nc3ncc4ccn(-c5cc(F)cc(F)c5)c4n3)cn2)C[C@H](C)N1 | 36
Cc1cc(Nc2ncc3ccn(-c4cc(F)c(CN5CCOCC5)c(F)c4)c3n2)cnc1N1CCNC(C)(C)C1=O | 104
C[C@@H]1CN(Cc2ccc(Nc3ncc4ccn(-c5ccc6c(c5)CCC(=O)N6)c4n3)cc2)C[C@H](C)N1 | 14
Cc1cc(Nc2ncc3ccn(-c4cc(F)c(CN5CCS(=O)(=O)CC5)c(F)c4)c3n2)cnc1N1C[C@@H](C)N[C@@H](C)C1 | 41
Cc1ccc(Nc2ncc3ccn(-c4cc(F)c(CN5CCS(=O)(=O)CC5)c(F)c4)c3n2)cc1CN1CC(O)C1 | 5.9
Cc1ccc(Nc2ncc3ccn(-c4cc(F)c(CN5CCOCC5)c(F)c4)c3n2)cc1CN1C[C@@H](C)N[C@@H](C)C1 | 5.3
Cc1cc(Nc2ncc3ccn(-c4cc(F)c(CN5CCOCC5)c(F)c4)c3n2)ccc1[C@H]1CCCN1 | 2.8
Fc1cc(-n2ccc3cnc(Nc4ccnc(N5CCN(C6CC6)CC5)c4)nc32)cc(F)c1CN1CCOCC1 | 1.9
C[C@@H]1CN(c2ccc(Nc3ncc4ccn(-c5cc(F)c(CN6CCCC6=O)c(F)c5)c4n3)cn2)C[C@H](C)N1 | 1.4
Fc1cc(-n2ccc3cnc(Nc4ccc(OC5CCNC5)nc4)nc32)cc(F)c1CN1CCOCC1 (racemic) | 60.5
